Just for reference, the RNAGym collection of RNA variant scans (doi:10.1093/nar/gkz1192) is where these values come from.

B1: CPEB3 Ribozyme (parent)
chain: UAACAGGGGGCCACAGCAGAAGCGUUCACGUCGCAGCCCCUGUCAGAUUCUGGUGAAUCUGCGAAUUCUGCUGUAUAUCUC

Variants of: B1
Experiment: self-cleavage, relative activity (ratio to wild type); higher = more cleavage; in vitro, sequencing
Think of 0.5 as a floor: if self-cleavage stands on it or above, it is Satisfied; beneath it, Not satisfied.

Study these solved cases before continuing.
{"Sequence Text": "UAACAGAGGGCCACAGCAGAAGCGUUCACGGCGCAGCCCCUGUCAGAUUCUGGUGAAUCUGCGAAUUCUGCUGUAUAUCUC [G7A U31G]", "Assigned Class": "Not satisfied"}
{"Sequence Text": "UAACAGGUGGCCACAGCAGAAGCGUUCACGUCGCAGCCCCCGUCAGAUUCUGGUGAAUCUGCGAAUUCUGCUGUAUAUCUC [G8U U41C]", "Assigned Class": "Not satisfied"}
{"Sequence Text": "UAACAGGGGGCCCCAGCAGAAGCGUUCACGUCGCAGCCCCUGUCAGAUUCUGGUGAAUCUGCGAAUUCUGCUGUAUAACUC [A13C U78A]", "Assigned Class": "Satisfied"}
{"Sequence Text": "UAACAGGGGGCCACAGCAGAAGCGUUCACGUCGCAGCCCCUGUCAGAUCGUGGUGAAUCUGCGAAUUCUGCUGUAUAUCUC [U49C C50G]", "Assigned Class": "Satisfied"}
{"Sequence Text": "UAACAGGGGGCCACUGCAGAAGCGCUCACGUCGCAGCCCCUGUCAGAUUCUGGUGAAUCUGCGAAUUCUGCUGUAUAUCUC [A15U U25C]", "Assigned Class": "Not satisfied"}
{"Sequence Text": "UAACAGGGGGCCACAGCAGAAGCGUACACGUCGCAGCCCCUGUCAGAUUCUGGUGAAUCUGCGAAUUCUGCUGUAUAUCGC [U26A U80G]", "Assigned Class": "Satisfied"}
{"Sequence Text": "UAACGGGGGGCCACAGCAGAAGCGUUCACGUCGCAGCCCCUGUCAGAUUCUGGUGAAUCUGCGAAUUCUGCUGUAUAUCUC [A5G]", "Assigned Class": "Satisfied"}
{"Sequence Text": "UAACAGGGGGCCACAGCAGAAGCGUUCACGUCGUAGCCCCUGUCAGAUUCUGGUGUAUCUGCGAAUUCUGCUGUAUAUCUC [C34U A56U]", "Assigned Class": "Not satisfied"}

Data request: Is the recorded value of self-cleavage equal to or greater than 0.5 for this variant? UAACAGGGGGCCACAGCAGAAGCGUUCACGUCGCAGCCCCUGUCAGAUUCUGGAGAAUCAGCGAAUUCUGCUGUAUAUCUC [U54A U60A]
Data returned: Satisfied

Data request: Quick check: does UAACAGGGGGCCACAGCAGAAGCGUUCACGUCGCACCCCCUGUCAGAUUCUGGUGAAUCUGCGAAUUCUGCUGUAUAUCCC [G36C U80C] have self-cleavage greater than or equal to 0.5?
Data returned: Not satisfied
